Tested on: LNCaP cells
Assay: Cellular proliferation assay (alamarBlue) LNCaP
Format: cell-based
Details: Homo sapiens, 168 hours, read-out: Prostate LNCaP IC50
Parameter: IC50 (nM)
Numbers only; they are read as nM.

The examples below pair each entry with its known result.
Cc1sc2c(c1C)C(c1ccc(Cl)cc1)=N[C@@H](CC(=O)N1CCC3(CC1)COC3)c1nnc(C)n1-2 ... 102
Cc1sc2c(c1C)C(c1ccc(Cl)cc1)=N[C@@H](CC(=O)NC1C[C@H]3CCC[C@@H](C1)N3C(=O)OC(C)(C)C)c1nnc(C)n1-2 (stereo partly shown) ... 17
Cc1sc2c(c1C)C(c1ccc(Cl)cc1)=N[C@@H](CC(=O)NC1C[C@H]3CCC[C@@H](C1)N3)c1nnc(C)n1-2 (stereo partly shown) ... 353

With those in mind, consider the next molecule.
// IC50 lookup, molecule = Cc1sc2c(c1C)C(c1ccc(Cl)cc1)=N[C@@H](CC(=O)OC(C)(C)C)c1nnc(C)n1-2 [Example V1, reference compound] , result: 63

###

Molecular target: BRD4(1) (Homo sapiens)
Construct: BRD4(1) (amino acids 44-168)
Assay: Binding assay BRD4/acetylated peptide H4 (TR-FRET/HTRF protein-protein interaction assay)
Conditions: inhibition of interaction BRD4(1) / acetylated histone H4 peptide, TR-FRET
Parameter: pIC50
FYI, pIC50 means -log10 of a concentration in mol per litre.

Cc1sc2c(c1C)C(c1ccc(Cl)cc1)=N[C@@H](CC(=O)N1C3CCC1CC(=O)C3)c1nnc(C)n1-2 ... 7.55
Cc1sc2c(c1C)C(c1ccc(Cl)cc1)=N[C@@H](CC(=O)N1CC3(COC3)C1)c1nnc(C)n1-2 ... 7.57
Cc1sc2c(c1C)C(c1ccc(Cl)cc1)=N[C@@H](CC(=O)N1C3CCC1CC3)c1nnc(C)n1-2 ... 7.12

// pIC50 lookup, compound = "Cc1sc2c(c1C)C(c1ccc(Cl)cc1)=N[C@@H](CC(=O)N1CC3CCC1CC3)c1nnc(C)n1-2" , result: 7.08

// pIC50 lookup, compound = Cc1sc2c(c1C)C(c1ccc(Cl)cc1)=N[C@@H](CC(=O)NC1C[C@H]3CCC[C@@H](C1)N3C(=O)OC(C)(C)C)c1nnc(C)n1-2 (stereo partly drawn) , result: 6.62

// pIC50 lookup, compound = Cc1sc2c(c1C)C(c1ccc(Cl)cc1)=N[C@@H](CC(=O)NC1C[C@H]3CCC[C@@H](C1)N3)c1nnc(C)n1-2 (stereo partly drawn) , result: 7.82

// pIC50 lookup, compound = "Cc1sc2c(c1C)C(c1ccc(Cl)cc1)=N[C@@H](CC(=O)N1CC3CCC(C1)O3)c1nnc(C)n1-2" , result: 7.11

// pIC50 lookup, compound = "Cc1sc2c(c1C)C(c1ccc(Cl)cc1)=N[C@@H](CC(=O)N1CCC3(COC3)C1)c1nnc(C)n1-2" , result: 7.54

// pIC50 lookup, compound = "Cc1sc2c(c1C)C(c1ccc(Cl)cc1)=N[C@@H](CC(=O)N1CCC3(CC1)COC3)c1nnc(C)n1-2" , result: 7.49

###

System: MOLM-13 cells
Assay: Cellular proliferation assay (alamarBlue) MOLM-13
Type: cell-based
Conditions: Homo sapiens, 96 hours, read-out: Leukaemia MOLM-13 IC50
pIC50: −log10 of the molar value.
Label 1 (yes) for high-side pIC50 (at or above 7) and 0 (no) for low-side pIC50 (below it).

Cc1sc2c(c1C)C(c1ccc(Cl)cc1)=N[C@@H](CC(=O)N1C3CCC1CC3)c1nnc(C)n1-2 ... 0 (no)

API: above_or_equal(metric=pIC50, cutoff=7) for item Cc1sc2c(c1C)C(c1ccc(Cl)cc1)=N[C@@H](CC(=O)OC(C)(C)C)c1nnc(C)n1-2 [Example V1, reference compound] 1 (yes)

###

A collection of compounds and their measured pIC50
System: LNCaP cells
Assay: Cellular proliferation assay (alamarBlue) LNCaP
Assay type: cell-based
Conditions: Homo sapiens, 168 hours, read-out: Prostate LNCaP IC50
FYI, pIC50 means -log10 of a concentration in mol per litre.

The examples below pair each entry with its known result.
Cc1sc2c(c1C)C(c1ccc(Cl)cc1)=N[C@@H](CC(=O)N1CC3CCC(C1)O3)c1nnc(C)n1-2 [Example 5] ... 7.40
Cc1sc2c(c1C)C(c1ccc(Cl)cc1)=N[C@@H](CC(=O)N1CC3(COC3)C1)c1nnc(C)n1-2 [Example 2] ... 7.10

// pIC50 lookup, compound = Cc1sc2c(c1C)C(c1ccc(Cl)cc1)=N[C@@H](CC(=O)N1CCC3(COC3)C1)c1nnc(C)n1-2 [Example 6] , result: 7.44

// pIC50 lookup, compound = Cc1sc2c(c1C)C(c1ccc(Cl)cc1)=N[C@@H](CC(=O)N1C3CCC1CC(=O)C3)c1nnc(C)n1-2 [Example 1] , result: 7.05

###

Test: Plasma concentrations from in-vivo tests and PK parameters
Conditions: in vivo, po; mouse, 100 mg/kg p.o., 1 h
Parameter: concentration at 1 h (ng/mL)
Numbers only; they are read as ng/mL.

// concentration at 1 h lookup, compound = "Cc1sc2c(c1C)C(c1ccc(Cl)cc1)=N[C@@H](CC(=O)N1C3CCC1CC(=O)C3)c1nnc(C)n1-2" , result: 1470

###

Assay: In-vivo tolerability in the mouse
Design: species or system female NMRI nude mice
Conditions: female, NMRI nude, mouse, in vivo; oral, once daily; read-out: maximum tolerated treatment dose (MTD), single daily treatment
Parameter: MTD

The examples below pair each entry with its known result.
Cc1sc2c(c1C)C(c1ccc(Cl)cc1)=N[C@@H](CC(=O)N1CC3(COC3)C1)c1nnc(C)n1-2 ... ≥ 200 mg/kg
Cc1sc2c(c1C)C(c1ccc(Cl)cc1)=N[C@@H](CC(=O)OC(C)(C)C)c1nnc(C)n1-2 [Example V1, reference compound] ... 100 mg/kg

With those in mind, consider the next compound.
// MTD lookup, compound = "Cc1sc2c(c1C)C(c1ccc(Cl)cc1)=N[C@@H](CC(=O)N1C3CCC1CC(=O)C3)c1nnc(C)n1-2" , result: ≥ 200 mg/kg

###

Tested on: MOLM-13 cells
Test: Cellular proliferation assay (alamarBlue) MOLM-13
Assay type: cell-based
Details: Homo sapiens, 96 hours, read-out: Leukaemia MOLM-13 IC50
Parameter: pIC50
FYI, pIC50 means -log10 of a concentration in mol per litre.

// pIC50 lookup, molecule = Cc1sc2c(c1C)C(c1ccc(Cl)cc1)=N[C@@H](CC(=O)N1CC3CCC1CC3)c1nnc(C)n1-2 [Example 8] , result: 5.97

// pIC50 lookup, molecule = Cc1sc2c(c1C)C(c1ccc(Cl)cc1)=N[C@@H](CC(=O)N1CCC3(COC3)C1)c1nnc(C)n1-2 [Example 6] , result: 6.88

// pIC50 lookup, molecule = Cc1sc2c(c1C)C(c1ccc(Cl)cc1)=N[C@@H](CC(=O)NC1C[C@H]3CCC[C@@H](C1)N3)c1nnc(C)n1-2 (stereo partly drawn) [Example 4] , result: 7.24

###

Test: Plasma concentrations from in-vivo tests and PK parameters
Conditions: plasma, po; mouse, 100 mg/kg p.o., 3 h
Description: After thawing and shaking, the samples are centrifuged for 20 minutes at 4° C. and approx. 2000×g. An aliquot of the supernatant (approx. 25 μL) is measured by LCMS analysis. If high plasma or tissue levels are expected (>ULOQ, as a rule 5 μM) the precipitated samples are additionally diluted 1:100 with ACN/H2O (80/20, v/v)+internal standard and corresponding aliquots are measured by LCMS. […] The following PK parameters are calculated from these concentration-time profiles obtained: […]
Parameter: concentration at 3 h (µg/mL)
Numbers only; they are read as µg/mL.

// concentration at 3 h lookup, compound = "Cc1sc2c(c1C)C(c1ccc(Cl)cc1)=N[C@@H](CC(=O)N1C3CCC1CC(=O)C3)c1nnc(C)n1-2" , result: 0.836

###

Test system: MOLM-13 cells
Assay: Cellular proliferation assay (alamarBlue) MOLM-13
Assay type: cell-based
Details: Homo sapiens, 96 hours, read-out: Leukaemia MOLM-13 IC50
// returns false (0) unless IC50 is strictly below 100 nM, in which case true (1)

Hi there! Is IC50 for "Cc1sc2c(c1C)C(c1ccc(Cl)cc1)=N[C@@H](CC(=O)N1CCC3(CC1)COC3)c1nnc(C)n1-2" below 100 nM, do you know? true (1)

Hi there! Is IC50 for "Cc1sc2c(c1C)C(c1ccc(Cl)cc1)=N[C@@H](CC(=O)N1C3CCC1CC(=O)C3)c1nnc(C)n1-2" below 100 nM, do you know? true (1)

Hi there! Is IC50 for Cc1sc2c(c1C)C(c1ccc(Cl)cc1)=N[C@@H](CC(=O)NC1C[C@H]3CCC[C@@H](C1)N3C(=O)OC(C)(C)C)c1nnc(C)n1-2 (some centres unmarked) below 100 nM, do you know? true (1)

Hi there! Is IC50 for "Cc1sc2c(c1C)C(c1ccc(Cl)cc1)=N[C@@H](CC(=O)N1CC3CCC(C1)O3)c1nnc(C)n1-2" below 100 nM, do you know? false (0)
